// provenance: ChEMBL document CHEMBL2218924

target: Ephrin type-A receptor 1 (Homo sapiens); conditions: at 10 µM
Entries and their residual activity values follow.
Reply with just the number (in %).

Previously resolved entries follow.
{"given smiles": "COc1cc2nccc(Oc3ccc(NC(=O)Nc4cc(C)on4)c(Cl)c3)c2cc1OC", "unit spec": "%", "readout value": 6}
{"given smiles": "Nc1nc(Nc2ccc(S(N)(=O)=O)cc2)nn1C(=O)c1c(F)cccc1F", "unit spec": "%", "readout value": 6}
{"given smiles": "O=C1Cc2c([nH]c3ccc(Br)cc23)-c2ccccc2N1", "unit spec": "%", "readout value": 78}

Next item in the queue.
Would you mind telling me what residual activity value was observed for O=C1NC(=O)C(c2c[nH]c3ccccc23)=C1c1c[nH]c2ccccc12 ?
22

---

target: CDK9/cyclin T1 (Homo sapiens) (UniProt O60563+P50750); conditions: at 10 µM
Entry class follows residual activity: I = under 30%, II = from 30% up to 70%, III = 70% and over

Use the examples below as a reference point.
{"compound": "Cc1cc(C)c(/C=C2\\C(=O)Nc3ccccc32)[nH]1", "group label": "III"}
{"compound": "O=C(NC(NC(=S)Nc1ccc(F)c([N+](=O)[O-])c1)C(Cl)(Cl)Cl)C(c1ccccc1)c1ccccc1 (stereo not drawn)", "group label": "III"}
{"compound": "N#C/C(=C1/Nc2ccccc2S1)c1ccnc(NCCc2cccnc2)n1", "group label": "I"}
{"compound": "Nc1ncnc2c1cnn2-c1ccccc1", "group label": "III"}
{"compound": "Nc1nc(Nc2ccc(S(N)(=O)=O)cc2)nn1C(=O)c1c(F)cccc1F", "group label": "I"}

Sort into band: O=C(c1ccccc1)c1ccc(N2CCOCC2)cc1O
II

Sort into band: Nc1n[nH]c2nc3ccccc3nc12
II

Sort into band: O=C1NC(=O)c2c1c1c3ccccc3[nH]c1n1cncc21
II

Sort into band: Nc1ncnc2c1c(-c1ccc(Oc3ccccc3)cc1)cn2C1CCCC1
III

Sort into band: O=C(O)/C=C/c1cc(Br)c(Br)c(Br)c1Br
I

Sort into band: O=c1c(-c2ccc(F)cc2)c(-c2ccncc2)[nH]n1-c1ccc(Cl)cc1
III

Sort into band: CCCCc1c(-c2ccc(OC)cc2)[nH]c2nccnc12
I

Sort into band: O=C1NC(=O)C(c2cn(CCCO)c3ncccc23)=C1c1cnccn1
III

---

Entries and their residual activity values follow.
molecular target: Death-associated protein kinase 3 (Homo sapiens) (UniProt O43293); settings: at 1 µM
Sequence (O43293 whole entry, looked up): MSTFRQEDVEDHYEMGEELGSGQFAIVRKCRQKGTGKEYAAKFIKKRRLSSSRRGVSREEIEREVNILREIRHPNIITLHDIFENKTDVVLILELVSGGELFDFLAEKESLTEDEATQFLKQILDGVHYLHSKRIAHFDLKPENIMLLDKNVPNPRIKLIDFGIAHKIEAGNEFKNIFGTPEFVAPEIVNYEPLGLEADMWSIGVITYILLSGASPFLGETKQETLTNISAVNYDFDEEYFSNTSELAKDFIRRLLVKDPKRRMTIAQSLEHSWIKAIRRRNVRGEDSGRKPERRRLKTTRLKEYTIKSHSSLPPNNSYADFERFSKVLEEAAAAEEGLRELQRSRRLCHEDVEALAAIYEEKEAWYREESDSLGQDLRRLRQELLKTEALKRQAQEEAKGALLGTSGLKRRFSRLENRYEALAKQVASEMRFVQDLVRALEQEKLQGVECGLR
Reply with just the number (in %).

Previously resolved entries follow.
{"given smiles": "O=C(c1ccccc1)c1ccc(N2CCOCC2)cc1O", "target system": "Death-associated protein kinase 3 (Homo sapiens) (UniProt O43293)", "readout value": 84}
{"given smiles": "CC(C)N(CCC(=O)c1ccc2ccccc2c1)Cc1ccccc1", "target system": "Death-associated protein kinase 3 (Homo sapiens) (UniProt O43293)", "readout value": 85}
{"given smiles": "COc1ccc(Cl)cc1NC(=O)Nc1cc(C)nc2ccccc12", "target system": "Death-associated protein kinase 3 (Homo sapiens) (UniProt O43293)", "readout value": 88}

Query the reported residual activity for Death-associated protein kinase 3 (Homo sapiens) (UniProt O43293); item: CC(C)(C)n1nc(Cc2cccc3ccccc23)c2c(N)ncnc21
99

Query the reported residual activity for Death-associated protein kinase 3 (Homo sapiens) (UniProt O43293); item: CC(C)[C@H](CO)Nc1nc(Nc2cc(N)cc(Cl)c2)c2ncn(C(C)C)c2n1
95

Query the reported residual activity for Death-associated protein kinase 3 (Homo sapiens) (UniProt O43293); item: O=C(CCCc1ccc(-c2ccccc2F)cc1)Nc1ccc(O)cc1
98
